Data provenance: patent US20260083865A1

target: PSMA-expressing C4-2 cells (Homo sapiens, UniProt Q04609); construct: PSMA-expressing C4-2 cells (ATCC, Cat. No. CRL-3314) were cultured in RPMI-1640; host or cells: C4-2 cells; assay: FACS binding assay (competition with 50 nM PSM-0183); conditions: FACS binding, C4-2 cells, category; read-out: pIC50 [C4-2] CAT (converted)
Sequence (Q04609 whole entry): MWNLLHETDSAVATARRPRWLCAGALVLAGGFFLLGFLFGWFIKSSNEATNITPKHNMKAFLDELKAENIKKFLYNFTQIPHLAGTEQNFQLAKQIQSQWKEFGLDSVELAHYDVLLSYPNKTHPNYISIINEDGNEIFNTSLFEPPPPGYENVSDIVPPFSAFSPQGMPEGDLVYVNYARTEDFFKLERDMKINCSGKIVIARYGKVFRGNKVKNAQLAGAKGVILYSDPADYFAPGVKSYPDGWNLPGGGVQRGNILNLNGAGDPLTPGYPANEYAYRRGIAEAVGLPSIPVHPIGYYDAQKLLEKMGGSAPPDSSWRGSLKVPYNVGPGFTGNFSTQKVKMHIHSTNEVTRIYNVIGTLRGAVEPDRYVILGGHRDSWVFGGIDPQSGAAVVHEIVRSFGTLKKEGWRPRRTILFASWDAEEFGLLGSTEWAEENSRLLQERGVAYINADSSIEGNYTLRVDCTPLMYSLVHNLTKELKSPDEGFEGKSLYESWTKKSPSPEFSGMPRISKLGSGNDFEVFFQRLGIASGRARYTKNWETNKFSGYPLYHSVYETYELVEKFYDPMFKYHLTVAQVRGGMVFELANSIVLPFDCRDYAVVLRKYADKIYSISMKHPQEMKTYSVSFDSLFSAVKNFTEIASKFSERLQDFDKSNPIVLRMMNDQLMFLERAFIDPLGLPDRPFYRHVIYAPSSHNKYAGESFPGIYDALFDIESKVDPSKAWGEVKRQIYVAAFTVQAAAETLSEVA
Bridge positions count the residues as written; N and C are the ends. Square brackets hold non-standard residues; d marks the D form. Peptide text beside a SMILES is read from it. tBuAla = CC(C)(C)C[C@H](N)C(=O)O; Tle = CC(C)(C)[C@H](N)C(=O)O; Aib = CC(C)(N)C(=O)O
Examples of compounds with documented IC50 follow.

[
  {
    "Compound": "CC(=O)N[C@H](C(=O)NC(C)(C)C(=O)N[C@@H](Cc1ccccc1)C(=O)N[C@H]1CSSC[C@@H](C(=O)N[C@@H](CC(C)(C)C)C(N)=O)NC(=O)[C@H](CC(N)=O)NC(=O)C(C)(C)NC(=O)[C@H](CCCNC(=N)N)NC(=O)[C@H](CCCCN)NC1=O)[C@@H](C)O [PSM-0560] (Ac-T[Aib]FCKR[Aib]NC[tBuAla]-NH2; disulfide 4-9)",
    "Result": "< 200 nM"
  }
]

Consider the additional compound presented here.
State its IC50: CC(=O)N[C@H](C(=O)NC(C)(C)C(=O)N[C@@H](Cc1ccccc1)C(=O)N[C@H]1CSSC[C@@H](C(=O)N[C@H](C(=O)N[C@H](C(N)=O)[C@@H](C)O)C(C)(C)C)NC(=O)[C@H](Cc2c[nH]c3ccccc23)NC(=O)C(C)(C)NC(=O)[C@H](CCCNC(=N)N)NC(=O)[C@H](CCCCN)NC1=O)[C@@H](C)O [PSM-0589] (Ac-T[Aib]FCKR[Aib]WC[Tle]T-NH2; disulfide 4-9) < 200 nM
